- Subject of test: KCNQ2/3 channels (Homo sapiens, UniProt O43525+O43526)
- Test protocol: Fluorescence assay using a voltage-sensitive dye (fluorimetry)
- Cond: CHO-K1 cells expressing KCNQ2/3 channels
Response field class: enum, chosen by comparing EC50 against group A = under 90 nM, group B = from 90 nM up to 600 nM, group C = 600 nM and over

Worked set:
[[record]]
structure_smiles = "O=C(NCc1cccs1)c1cc2ccccc2nc1SCCS(=O)(=O)c1cccc(C(F)(F)F)c1"
class_assignment = "group C"

[[record]]
structure_smiles = "CCSc1nc2cc(C(F)(F)F)ccc2c(C)c1C(=O)NCc1cccc(C(C)(C)C)c1"
class_assignment = "group A"

[[record]]
structure_smiles = "CCSc1nc2cc(C(F)(F)F)ccc2c(C)c1C(=O)NCc1ccc(O)cc1"
class_assignment = "group C"

[[record]]
structure_smiles = "CCSc1nc2cc(C(F)(F)F)ccc2c(C)c1C(=O)NCc1ccc(F)c(F)c1"
class_assignment = "group B"

[[record]]
structure_smiles = "CCSc1nc2cc(F)c(F)cc2c(C)c1C(=O)NCc1cccc(F)c1"
class_assignment = "group B"


Please report the category associated with CCSc1nc2cc(OC)ccc2c(C)c1C(=O)NCc1cccc(F)c1 , nothing else. group C

Repeat for the following compound: CCSc1nc2ccc(C)cc2c(C)c1C(=O)NCc1cccc(F)c1 group C

Entry to check: CCSc1nc2cc(C(F)(F)F)ccc2c(C)c1C(=O)NCc1cc(F)c(F)cc1F group B

Ok, now CCSc1nc2cc(F)ccc2c(C)c1C(=O)NCc1cccc(F)c1 group B

Queued: CCSc1nc2c(C(F)(F)F)cccc2c(C)c1C(=O)NCc1ccc(F)cc1 group B

Next compound: CCSc1nc2c(O)cccc2c(C)c1C(=O)NCc1cccc(F)c1 group C

Input CCSc1nc2cc(C(F)(F)F)ccc2c(C)c1C(=O)NCc1cc(C)cs1 group C

Next record, please: CCCCSc1nc2cc(C(F)(F)F)ccc2c(C)c1C(=O)NCc1cccc(F)c1 group A

Now consider CCSc1nc2cc(C(F)(F)F)ccc2c(C)c1C(=O)NCc1cccc(C(F)(F)F)c1 and answer again. group A

###

Listing of recorded pEC50 by entry.
- Subject of test: KCNQ2/3 channels (Homo sapiens, UniProt O43525+O43526)
- Test protocol: Fluorescence assay using a voltage-sensitive dye (fluorimetry)
- Cond: CHO-K1 cells expressing KCNQ2/3 channels
- Experimental: […] CHO-K1 cells expressing KCNQ2/3 channels are cultivated adherently at 37° C., 5% CO2 and 95% humidity in cell culture bottles (e.g. 80 cm^2 TC flasks, Nunc) with DMEM-high glucose (Sigma Aldrich, D7777) including 10% FCS (PAN Biotech, e.g. 3302-P270521) or alternatively MEM Alpha Medium (1×, liquid, Invitrogen, #22571), 10% foetal calf serum (FCS) (Invitrogen, #10270-106, heat-inactivated) and the necessary selection antibiotics. […]
pEC50 (log units): -log10 of the concentration in mol/L.

[[record]]
molecule = "CCSc1nc2cc(C(F)(F)F)ccc2c(C)c1C(=O)NCc1ccc(Cl)cc1 [compound 80]"
quantitative_result = 6.83

[[record]]
molecule = "CCSc1nc2cc(C)ccc2c(C)c1C(=O)NCc1cccc(F)c1 [compound 107]"
quantitative_result = 6.30

[[record]]
molecule = "CCSc1nc2cc(F)ccc2c(C)c1C(=O)NCc1ccc(F)cc1 [compound 106]"
quantitative_result = 6.67


Reported pEC50 for CCSc1nc2cc(C(F)(F)F)ccc2c(N(C)C)c1C(=O)NCc1cccc(F)c1 [compound 131] : what is it? 5.74

Can you handle CCSc1nc2cc(C(F)(F)F)ccc2c(C)c1C(=O)NCc1ccc(C)s1 [compound 69] next? 6.07

Moving on to CCSc1nc2cc(C(F)(F)F)ccc2c(C)c1C(=O)NCc1ccc(C)o1 [compound 111] 7.07

Repeat with O=C(NCC1CCCCC1)c1cc2ccccc2nc1SCCS(=O)(=O)c1ccccc1 [compound 19] 6.78

Also need CCSc1nc2cc(C(F)(F)F)ccc2c(C)c1C(=O)NCCCC1CCCC1 [compound 54] , thanks. 6.79

Same question for CCSc1nc2cc(C(F)(F)F)ccc2c(C)c1C(=O)NCc1ccc(F)cc1 [compound 77] please. 6.98

###

- Subject of test: KCNQ2/3 channels (Homo sapiens, UniProt O43525+O43526)
- Test protocol: Fluorescence assay using a voltage-sensitive dye (fluorimetry)
- Cond: CHO-K1 cells expressing KCNQ2/3 channels
pEC50: −log10 of the molar value.
Assign class by pEC50: not lower than 6 means true; lower than 6 means false.

# example entries with known answers
[[record]]
structure_smiles = "CCSc1nc2cc(C(F)(F)F)ccc2c(C)c1C(=O)NCc1ccc(OC)cc1"
class_assignment = "true"

[[record]]
structure_smiles = "CCSc1nc2cc(C(F)(F)F)ccc2c(C)c1C(=O)NCc1ccc(C(F)(F)F)cc1"
class_assignment = "true"

[[record]]
structure_smiles = "CCSc1nc2cc(OC)ccc2c(C)c1C(=O)NCc1ccc(F)cc1"
class_assignment = "true"

[[record]]
structure_smiles = "CCSc1nc2c(F)cccc2c(C)c1C(=O)NCc1ccc(F)cc1"
class_assignment = "true"


Next:
Decide: is the reported value of pEC50 for CCSc1nc2cc(C(F)(F)F)ccc2c(C)c1C(=O)NCc1cccc(O)c1 equal to or greater than 6? false

###

- Subject of test: KCNQ2/3 channels (Homo sapiens, UniProt O43525+O43526)
- Construct: expressed in transfected cells; host or cells: CHO-K1 cells
- Test protocol: Fluorescence assay using a voltage-sensitive dye (fluorimetry)
- Type: cell-based
- Cond: at 1 μM; 50 μM retigabine = 100%; CHO-K1 cells expressing KCNQ2/3; read-out: Fluorimetry % efficacy at 1 μM (50 μM retigabine = 100%)
Quantity name: Emax at 1 µM (%)
Respond with the bare value in %.

Sample answers from the record:
[[record]]
molecule = "O=C(NCc1cccs1)c1cc2ccccc2nc1SCCSc1ccccc1"
quantitative_result = 30

[[record]]
molecule = "CCSc1nc2cc(C(F)(F)F)ccc2c(Cl)c1C(=O)NCc1cccc(F)c1"
quantitative_result = 171

[[record]]
molecule = "CCSc1nc2cc(C(F)(F)F)ccc2c(C)c1C(=O)NCC(C)(C)C"
quantitative_result = 47

[[record]]
molecule = "CCSc1nc2cccc(OC)c2c(C)c1C(=O)NCc1cccc(F)c1"
quantitative_result = 14

[[record]]
molecule = "CCCCCSc1nc2cc(C(F)(F)F)ccc2cc1C(=O)NCc1cccs1"
quantitative_result = 145

[[record]]
molecule = "CCSc1nc2cc(F)ccc2c(C)c1C(=O)NCc1cccc(F)c1"
quantitative_result = 140


Fill blank: measured Emax at 1 µM of the molecule CCSc1nc2cc(O)ccc2c(C)c1C(=O)NCc1cccc(F)c1 is ____. 12

Quick one: CCSc1nc2c(C(F)(F)F)cccc2c(C)c1C(=O)NCc1ccc(F)cc1 166

Try the molecule CCSc1nc2cc(F)c(F)cc2c(C)c1C(=O)NCc1ccc(F)cc1 144

Also, CCSc1nc2cc(C(F)(F)F)ccc2c(C)c1C(=O)NCc1cccc(O)c1 please. 66

Same question for Cc1c(C(=O)NCc2cccc(F)c2)c(SC(C)C)nc2cc(C(F)(F)F)ccc12 please. 152

Same question for CCSc1nc2cc(C(F)(F)F)ccc2c(N(C)C)c1C(=O)NCc1cccc(F)c1 please. 104

Can you check CCSc1nc2cc(C(F)(F)F)ccc2c(C)c1C(=O)NCC1CC2CCC1C2 (centres unmarked) next? 25

And what about the molecule Cc1c(C(=O)NCc2ccc(F)cc2)c(SC(C)(C)C)nc2cc(C(F)(F)F)ccc12 ? 162

###

- Subject of test: KCNQ2/3 channels (Homo sapiens, UniProt O43525+O43526)
- Test protocol: Fluorescence assay using a voltage-sensitive dye (fluorimetry)
- Cond: CHO-K1 cells expressing KCNQ2/3 channels
I'd appreciate it if you marked entries yes when EC50 is lower than 0.2 µM and no when it is not.

Answered examples (4):
[[record]]
compound = "CCSc1nc2cc(C(F)(F)F)ccc2c(C)c1C(=O)NCCCc1ccccc1 [compound 40]"
class_assignment = "yes"

[[record]]
compound = "CCSc1nc2cc(C(F)(F)F)ccc2c(OC)c1C(=O)NCc1cccc(F)c1 [compound 130]"
class_assignment = "yes"

[[record]]
compound = "CCSc1nc2cc(C(F)(F)F)ccc2c(C)c1C(=O)NCC1CCCCCC1 [compound 29]"
class_assignment = "no"

[[record]]
compound = "CCSc1nc2cc(C(F)(F)F)ccc2c(C)c1C(=O)NCc1cc(F)c(F)c(F)c1 [compound 33]"
class_assignment = "yes"


Would you kindly verify if EC50 of Cc1c(C(=O)NCc2cccs2)c(SC(C)(C)C)nc2cc(C(F)(F)F)ccc12 [compound 89] is strictly less than 0.2 µM? yes

Moving on to CCCCCSc1nc2ccccc2cc1C(=O)NCc1cccs1 [compound 1] no

Source: patent US20100234372A1
